B1: TPR t1 (parent)
chain: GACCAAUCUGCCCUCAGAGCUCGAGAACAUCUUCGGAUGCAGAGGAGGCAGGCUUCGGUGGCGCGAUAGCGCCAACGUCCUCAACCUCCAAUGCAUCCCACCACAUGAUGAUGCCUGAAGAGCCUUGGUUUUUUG

variants of: B1; assay: polymerase ribozyme fitness, log enrichment relative to wild type (log ratio); higher = more active; in vitro selection for triplet polymerase activity
outcome_measure: polymerase ribozyme fitness (log ratio)
Note: the reply should be a number with no unit written.

I am curious: what polymerase ribozyme fitness (log ratio) value has been reported for C20A G42U ?
-4

I am curious: what polymerase ribozyme fitness (log ratio) value has been reported for G42A U78A U87C C114U ?
-2.27

I am curious: what polymerase ribozyme fitness (log ratio) value has been reported for G52A U59A ?
0.487

I am curious: what polymerase ribozyme fitness (log ratio) value has been reported for C11G G36C G77A ?
-0.0394

I am curious: what polymerase ribozyme fitness (log ratio) value has been reported for A6G G39A ?
0.16

I am curious: what polymerase ribozyme fitness (log ratio) value has been reported for G17A A43G G127A ?
-4.18

I am curious: what polymerase ribozyme fitness (log ratio) value has been reported for A5C G52U ?
-2.8

I am curious: what polymerase ribozyme fitness (log ratio) value has been reported for U14C A18U G48U G71A ?
-6.1

I am curious: what polymerase ribozyme fitness (log ratio) value has been reported for C40G U55G G71A C85A ?
-3.12

I am curious: what polymerase ribozyme fitness (log ratio) value has been reported for A50C G61U C114U A118G ?
-3.14

I am curious: what polymerase ribozyme fitness (log ratio) value has been reported for G47U C53U G120U ?
-1.25

I am curious: what polymerase ribozyme fitness (log ratio) value has been reported for C4A G110U ?
-3.24

I am curious: what polymerase ribozyme fitness (log ratio) value has been reported for G58C C80A ?
-3.5

I am curious: what polymerase ribozyme fitness (log ratio) value has been reported for C70G G110A ?
-4.37

I am curious: what polymerase ribozyme fitness (log ratio) value has been reported for C98A C124G G128A U133G ?
-6.31

I am curious: what polymerase ribozyme fitness (log ratio) value has been reported for A41U G61A C102A U133G ?
-3.96

I am curious: what polymerase ribozyme fitness (log ratio) value has been reported for C53A C62A G77C ?
-0.326

I am curious: what polymerase ribozyme fitness (log ratio) value has been reported for A18G G36C G45U U112A ?
-2.4

I am curious: what polymerase ribozyme fitness (log ratio) value has been reported for G48U U109C ?
-4.94

I am curious: what polymerase ribozyme fitness (log ratio) value has been reported for C34U U133A ?
-4.62

I am curious: what polymerase ribozyme fitness (log ratio) value has been reported for G48A C62A C82A C85G G110C U133A ?
-7.12

I am curious: what polymerase ribozyme fitness (log ratio) value has been reported for G57A G77C ?
-2.28

Value source: the RNAGym collection of RNA variant scans (doi:10.1073/pnas.2313332121)
